system: C. elegans VP596 Pgst-4::GFP/RFP ratio, acrylamide, 24 h; assay: potency of C. elegans SKN-1 blocker analogs – whole organism, GFP/RFP fluorescence ratio, round 2, SAR follow-up (AID 652265)
The source made the active and inactive calls.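 Rule for the calls: active = compounds whose half-maximal inhibitory concentration in the worm GFP to RFP ratio test is 5 micromolar or lower; inactive = the rest.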
Labels: yes (1) for active, no (0) for inactive

{"smiles.str": "CCOc1cc(CN2CCOCC2)cc(Cl)c1OCc1ccc(F)cc1", "category": "no (0)"}
{"smiles.str": "Clc1ccc(COc2c(Cl)cc(CNC3CCCC3)cc2Cl)cc1", "category": "yes (1)"}
{"smiles.str": "Cc1cc(CNC2CCCC2)cc(C)c1OCc1ccc(Cl)cc1", "category": "yes (1)"}
{"smiles.str": "CCOc1cc(CN2CCN(C)CC2)cc(Cl)c1OCc1ccc(Cl)cc1", "category": "yes (1)"}
{"smiles.str": "CCOc1cc(CNC2CC2)cc(Cl)c1OCc1ccc(Cl)cc1F", "category": "yes (1)"}
{"smiles.str": "COc1cc(CNC2CCCC2)cc(Cl)c1OCc1ccc(Cl)cc1", "category": "yes (1)"}
{"smiles.str": "CCOc1cc(CNC2CC2)cc(Cl)c1OCc1ccc(Br)cc1", "category": "yes (1)"}
{"smiles.str": "CCOc1cc(CNC2CC2)cc(Cl)c1OCc1ccc(Cl)cc1", "category": "yes (1)"}
{"smiles.str": "CCOc1cc(CN(C)C2CCCC2)cc(Cl)c1OCc1ccc(Cl)cc1", "category": "yes (1)"}
{"smiles.str": "CCOc1cc(CN2CCOCC2)cc(Cl)c1OCc1ccc(Cl)cc1", "category": "yes (1)"}
{"smiles.str": "C#CCNCc1cc(Cl)c(OCc2ccc(Cl)cc2)c(OCC)c1", "category": "no (0)"}
{"smiles.str": "CCOc1cc(CNC2CCCC2)cc(Cl)c1OCc1ccc(C#N)cc1", "category": "yes (1)"}
{"smiles.str": "CCOc1cc(CN2CCCCC2)cc(Cl)c1OCc1ccc(Cl)cc1", "category": "yes (1)"}
{"smiles.str": "CCOc1cc(CN2CCCC2)cc(Cl)c1OCc1ccc(Cl)cc1", "category": "yes (1)"}
{"smiles.str": "COc1cc(CNC2CCCC2)cc(F)c1OCc1ccc(Cl)cc1", "category": "yes (1)"}
{"smiles.str": "CCOc1cc(CN2CCN(C)CC2)cc(Cl)c1OCc1ccc(F)cc1", "category": "no (0)"}
{"smiles.str": "C=CCNCc1cc(Cl)c(OCc2ccc(Cl)cc2)c(OCC)c1", "category": "no (0)"}
{"smiles.str": "CCOc1cc(CNC2CCCC2)cc(Cl)c1OCc1ccc(Br)cc1", "category": "yes (1)"}
{"smiles.str": "CCOc1cc(CN2CCCC2)cc(Cl)c1OCc1ccc(F)cc1", "category": "no (0)"}
{"smiles.str": "CCOc1cc(CNC2CCCC2)cc(Cl)c1OCc1ccc(Cl)cc1F", "category": "yes (1)"}
{"smiles.str": "CCCNCc1cc(Cl)c(OCc2ccc(Cl)cc2)c(OCC)c1", "category": "no (0)"}
{"smiles.str": "COc1cc(CNC2CCCC2)cc(Br)c1OCc1ccc(Cl)cc1", "category": "yes (1)"}
{"smiles.str": "CCOc1cc(CN2CCCCC2)cc(Cl)c1OCc1ccc(F)cc1", "category": "yes (1)"}
{"smiles.str": "CCOc1cc(CNC2CC2)cc(Cl)c1OCc1ccc(C#N)cc1", "category": "yes (1)"}

---

system: C. elegans VP596 Pgst-4::GFP/RFP ratio, acrylamide, 24 h; assay: potency of C. elegans SKN-1 blocker analogs – whole organism, GFP/RFP fluorescence ratio, round 2, SAR follow-up (AID 652265)
Activity calls are given as the source filed them.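 Rule for the calls: active = compounds whose half-maximal inhibitory concentration in the worm GFP to RFP ratio test is 5 micromolar or lower; inactive = the rest.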
assay.endpoint: IC50

{"smiles.str": "CCOc1cc(CN(C(C)=O)C2CCCC2)cc(Cl)c1OCc1ccc(Cl)cc1", "system.name": "C. elegans VP596 Pgst-4::GFP/RFP ratio, acrylamide, 24 h", "assay.endpoint": "IC50", "reported.value": "> 64 µM (inactive)"}
{"smiles.str": "CCOc1cc(CNC)cc(Cl)c1OCc1ccc(Cl)cc1", "system.name": "C. elegans VP596 Pgst-4::GFP/RFP ratio, acrylamide, 24 h", "assay.endpoint": "IC50", "reported.value": "> 64 µM (inactive)"}
{"smiles.str": "CCOc1cc(CNCC2CC2)cc(Cl)c1OCc1ccc(Cl)cc1", "system.name": "C. elegans VP596 Pgst-4::GFP/RFP ratio, acrylamide, 24 h", "assay.endpoint": "IC50", "reported.value": "6.73 µM (inactive)"}
